tgt: heteromeric KV7.2/KV7.3 channels (KCNQ2, KCNQ3) (Homo sapiens, UniProt O43525+O43526)
Construct: expressed in transfected cells; host or cells: CHO-K1
assay name: Automated patch-clamp (Sophion Qube 384) potency assay against KV7.2/KV7.3 channels
Type: cell-based
particulars: CHO-K1/Kv7.2/Kv7.3 cells; maximal shift in the Vhalf from the top of the curve
measurement type: Kv7.2/7.3 ΔV1/2 (mV)
Write it as a number; the unit mV goes unstated.

Look over these answered cases.
[
  {
    "smi": "CC(F)(F)c1cc(CNC(=O)N[C@@H]2CCc3ccc(F)cc32)ccn1",
    "measurement type": "Kv7.2/7.3 ΔV1/2",
    "experimental result": 18.78
  },
  {
    "smi": "COc1ccc2c(c1)CCC[C@@H]2NC(=O)NCc1ccnc(OCC(F)(F)F)c1",
    "measurement type": "Kv7.2/7.3 ΔV1/2",
    "experimental result": 27.73
  }
]

Problem: Give Kv7.2/7.3 ΔV1/2; test system heteromeric KV7.2/KV7.3 channels (KCNQ2, KCNQ3) (Homo sapiens, UniProt O43525+O43526); compound O=C(NCc1ccnc(OCC(F)(F)F)c1)NCC1CCC(F)(F)CC1
Result: 26.04

====

tgt: heteromeric KV7.2/KV7.3 channels (KCNQ2, KCNQ3) (Homo sapiens, UniProt O43525+O43526)
Construct: expressed in transfected cells; host or cells: CHO-K1
assay name: Automated patch-clamp (Sophion Qube 384) potency assay against KV7.2/KV7.3 channels
Type: cell-based
particulars: CHO-K1/Kv7.2/Kv7.3 cells; maximal shift in the Vhalf from the top of the curve
The following compounds are shown together with reported Kv7.2/7.3 ΔV1/2 values.
Express the reported value numerically, then name its unit.

[
  {
    "compound": "O=C(NCc1ccnc(OCC(F)(F)F)c1)NCC1CCCCC1",
    "Kv7.2/7.3 ΔV1/2": "31.09 mV"
  }
]

Problem: Give recorded Kv7.2/7.3 ΔV1/2. O=C(NCc1ccnc(OCC(F)(F)F)c1)NC1CCSc2ccccc21 (stereo not drawn)
Result: 36.08 mV

Problem: Give recorded Kv7.2/7.3 ΔV1/2. O=C(NCCC1(C(F)(F)F)CC1)NCc1ccnc(OCC2CCOCC2)c1
Result: 13.2 mV

Problem: Give recorded Kv7.2/7.3 ΔV1/2. O=C(N[C@@H](CO)c1ccnc(OCC(F)(F)F)c1)N[C@@H]1CCc2ccc(F)cc21
Result: 38.71 mV

Problem: Give recorded Kv7.2/7.3 ΔV1/2. O=C(NCCC1(C(F)(F)F)CC1)NC1CCCc2cnc(OCC(F)(F)F)cc21 (stereo not drawn)
Result: 14.76 mV

Problem: Give recorded Kv7.2/7.3 ΔV1/2. O=C(NCc1ccnc(OCC(F)(F)F)c1)N[C@@H]1CCc2ccc(F)cc21
Result: 38.89 mV

Problem: Give recorded Kv7.2/7.3 ΔV1/2. O=C(NCc1ccnc(OCC(F)(F)F)c1)N[C@@H]1COC2(CC2)C1
Result: 21.79 mV

Problem: Give recorded Kv7.2/7.3 ΔV1/2. O=C(NCc1ccnc(OCC(F)(F)F)c1)N[C@H]1c2ccccc2C[C@H]1CO
Result: 23.51 mV

Problem: Give recorded Kv7.2/7.3 ΔV1/2. O=C(NCc1ccnc(OCC(F)(F)F)c1)N[C@H]1CCc2c(Cl)cccc21
Result: 22.37 mV

Problem: Give recorded Kv7.2/7.3 ΔV1/2. C[C@H](NC(=O)N[C@@H]1CCc2ccc(F)cc21)c1ccnc(OCC(F)(F)F)n1
Result: 28.73 mV

Problem: Give recorded Kv7.2/7.3 ΔV1/2. O=C(NCCC1(C(F)(F)F)CC1)NCc1cc(OCc2ccccc2)ncn1
Result: 27.09 mV

Problem: Give recorded Kv7.2/7.3 ΔV1/2. C[C@H](NC(=O)NCCC1(C(F)(F)F)CC1)c1ccnc(C(F)(F)F)c1
Result: 26.87 mV

Problem: Give recorded Kv7.2/7.3 ΔV1/2. O=C(NCc1ccnc(C(F)(F)F)c1)N[C@@H]1CCc2ccc(F)cc21
Result: 16.77 mV
